parameter-measured: melting point (°C)

> print(dat)
                                   compound  parameter.measured  experimental.value
1  COC(=O)N(C(=O)OC)c1nc(N2CCCCC2c2cc3nc(N4CCC4)cc(N4CCOCC4)n3n2)c2c(C)cccc2n1 (stereo not shown)       melting point              136.62
2  Cc1ccc2ncnc(N3CCCCC3c3cc4nc(N5CC(O)C5)c(C)cn4n3)c2c1 (stereo not shown)       melting point              233.08
3  Cc1nc(N2CCCCC2c2cc3nc(N4CC(N)C4)c(C)cn3n2)c2c(C)cccc2n1 (stereo not shown)       melting point              176.85
4  Cc1nnn(C)c1-c1nc(N2CCCCC2c2cc3nc(N4CCC4)cc(N4CCOCC4)n3n2)c2c(C)cccc2n1 (stereo not shown)       melting point              238.91
5  Cc1ccc2ncnc(N3CCCCC3c3cc4nc(N5CCC5)c(C)cn4n3)c2c1 (stereo not shown)       melting point              205.49
6  Cc1ccc2ncnc(N3CCCCC3c3cc4nc(N5CCC5)cc(C)n4n3)c2c1 (stereo not shown)       melting point              192.43
7  Cc1nc2c(N3CCCCC3c3cc4nc(N5CCC5)cc(N5CCOCC5)n4n3)ncnc2s1 (stereo not shown)       melting point               229.8

====

Item-by-item account of SI TOX HELA
Tested on: HeLa cells
assay: Cytotoxicity in HeLa cells, ATP content (ATPlite kit)
particulars: three days incubation, CC50 = 50% concentration for cytotoxicity
parameter-measured: SI TOX HELA

> print(dat)
                                    molecule  comparative.sign  experimental.value
 1  CCOc1cccc2ncnc(N3CCCCC3c3cc4nc(N5CCC5)cc(N5CCOCC5)n4n3)c12 (stereo not shown)                 <                   4
 2  Cc1cccc2ncnc(N3CCCCC3c3cc4nc(N5CCC5)cc(N5CCN(C(=O)OC(C)(C)C)CC5)n4n3)c12 (stereo not shown)                 =                 4.7
 3  CS(=O)(=O)Nc1nc(N2CCCCC2c2cc3nc(N4CCC4)cc(N4CCOCC4)n3n2)c2ccccc2n1 (stereo not shown)                 <                 4.3
 4  CS(=O)(=O)Nc1nc(N2CCCC[C@@H]2c2cc3nc(N4CCC4)cc(N4CCOCC4)n3n2)c2cc(Cl)ccc2n1                 =                 4.3
 5  Cc1cc(C)c2c(N3CCCCC3c3cc4nc(N5CCC5)cc(N5CCOCC5)n4n3)ncnc2c1 (stereo not shown)                 =                 4.3
 6  FC(F)(F)c1cccc2ncnc(N3CCCCC3c3cc4nc(N5CCC5)cc(N5CCOCC5)n4n3)c12 (stereo not shown)                 =                 4.3
 7  Clc1ccc2ncnc(N3CCCC[C@@H]3c3cc4nc(N5CCC5)cc(N5CCOCC5)n4n3)c2c1                 =                 4.6
 8  CS(=O)(=O)Nc1nc(N2CCCC[C@H]2c2cc3nc(N4CCC4)cc(N4CCOCC4)n3n2)c2cc(Cl)ccc2n1 [P33]                 =                 4.2
 9  COc1cccc2ncnc(N3CCCCC3c3cc4nc(N5CCC5)cc(N5CCOCC5)n4n3)c12 (stereo not shown)                 <                 4.6
10  Cc1cccc2nc(C(=O)NS(=O)(=O)C3CC3)nc(N3CCCCC3c3cc4nc(N5CCC5)cc(N5CCOCC5)n4n3)c12 (stereo not shown)                 <                   4
11  Cc1ccc2nc(NS(C)(=O)=O)nc(N3CCCC[C@H]3c3cc4nc(N5CCC5)cc(N5CCOCC5)n4n3)c2c1                 <                   4
12  Cc1nnn(C)c1-c1nc(N2CCCCC2c2cc3nc(N4CCC4)cc(N4CCOCC4)n3n2)c2c(C)cccc2n1 (stereo not shown)                 =                 4.8
13  Cc1cccc2ncnc(N3CCCCC3c3cc4nc(N5CCC5)cc(N5CCN(S(C)(=O)=O)CC5)n4n3)c12 (stereo not shown)                 =                 4.3
14  Clc1cccc2ncnc(N3CCCCC3c3cc4nc(N5CCC5)cc(N5CCOCC5)n4n3)c12 (stereo not shown)                 =                 4.4
15  Cc1cccc2ncnc(N3CCCC[C@@H]3c3cc4nc(N5CCC5)cc(N5CCOCC5)n4n3)c12                 <                 4.3
16  Cc1ccc2ncnc(N3CCCC[C@H]3c3cc4nc(N5CCC(N)C5)ccn4n3)c2c1 (stereo in doubt)                 =                 4.3

====

Test system: HeLa cells
assay: Cytotoxicity in HeLa cells, ATP content (ATPlite kit)
particulars: three days incubation, CC50 = 50% concentration for cytotoxicity
Item-by-item account of SI TOX HELA
parameter-measured: SI TOX HELA

> print(dat)
                                    molecule  comparative.sign  experimental.value
 1  Cc1ccc2ncnc(N3CCCCC3c3cc4nc(N5CC(N)C5)c(C)cn4n3)c2c1 (stereo not shown) [P13]                 =                 4.3
 2  Cc1cccc2ncnc(N3CCCCC3c3cc4nc(N5CCC5)cc(N5CCOCC5)n4n3)c12 (stereo not shown) [P17]                 =                 4.4
 3  Cc1cn2nc(C3CCCCN3c3nc(Cl)nc4cccc(C)c34)cc2nc1N1CC(O)C1 (stereo not shown) [P40]                 =                 4.7
 4  Cc1ccc2nc(C)nc(N3CCCC[C@H]3c3cc4nc(N5CC(O)C5)c(C)cn4n3)c2c1 [P43]                 =                 4.2
 5  Clc1ccc2ncnc(N3CCCC[C@H]3c3cc4nc(N5CCC5)cc(N5CCOCC5)n4n3)c2c1 [P2]                 =                 4.4
 6  CNC(=O)c1nc(N2CCCCC2c2cc3nc(N4CCC4)cc(N4CCOCC4)n3n2)c2c(C)cccc2n1 (stereo not shown) [P70]                 =                 4.3
 7  COC(=O)c1nc(N2CCCCC2c2cc3nc(N4CCC4)cc(N4CCOCC4)n3n2)c2c(C)cccc2n1 (stereo not shown) [P67]                 <                 4.3
 8  Cc1cccc2nc(O)nc(N3CCCCC3c3cc4nc(N5CCC5)cc(N5CCOCC5)n4n3)c12 (stereo not shown) [P45]                 =                 4.2
 9  Cc1nc(N2CCCCC2c2cc3nc(N4CCC4)cc(N4CCOCC4)n3n2)c2cc[nH]c2n1 (stereo not shown) [P15]                 =                 4.0
10  CCOc1nc(N2CCCCC2c2cc3nc(N4CCC4)cc(N4CCOCC4)n3n2)c2cccnc2n1 (stereo not shown) [P16]                 =                 4.3
11  Cc1ccc2ncnc(N3CCCCC3c3cc4nc(N5CCC5)cc(N5CCOCC5)n4n3)c2c1C (stereo not shown) [P64]                 <                 4.6
12  Cc1nc2c(N3CCCCC3c3cc4nc(N5CCC5)cc(N5CCOCC5)n4n3)ncnc2s1 (stereo not shown) [P20]                 =                 5.4
13  COC(=O)Nc1nc(N2CCCCC2c2cc3nc(N4CCC4)cc(N4CCOCC4)n3n2)c2c(C)cccc2n1 (stereo not shown) [P29]                 =                 4.5
14  Cc1ccc2nc(Cl)nc(N3CCCCC3c3cc4nc(N5CCC5)cc(N5CCOCC5)n4n3)c2c1 (stereo not shown) [P5]                 <                   5
15  Cc1cccc2nc(C(N)=O)nc(N3CCCCC3c3cc4nc(N5CCC5)cc(N5CCOCC5)n4n3)c12 (stereo not shown) [P46]                 =                 4.3
16  CCOc1nc(N2CCCCC2c2cc3nc(N4CCC4)cc(N4CCOCC4)n3n2)c2c(C)cccc2n1 (stereo not shown) [P31]                 =                 4.8
